Biological target: VEGFR-2 (Homo sapiens, UniProt P35968)
Construct: VEGFR-2 enzyme assay was performed as reported[57]
Sequence (P35968 20-1356): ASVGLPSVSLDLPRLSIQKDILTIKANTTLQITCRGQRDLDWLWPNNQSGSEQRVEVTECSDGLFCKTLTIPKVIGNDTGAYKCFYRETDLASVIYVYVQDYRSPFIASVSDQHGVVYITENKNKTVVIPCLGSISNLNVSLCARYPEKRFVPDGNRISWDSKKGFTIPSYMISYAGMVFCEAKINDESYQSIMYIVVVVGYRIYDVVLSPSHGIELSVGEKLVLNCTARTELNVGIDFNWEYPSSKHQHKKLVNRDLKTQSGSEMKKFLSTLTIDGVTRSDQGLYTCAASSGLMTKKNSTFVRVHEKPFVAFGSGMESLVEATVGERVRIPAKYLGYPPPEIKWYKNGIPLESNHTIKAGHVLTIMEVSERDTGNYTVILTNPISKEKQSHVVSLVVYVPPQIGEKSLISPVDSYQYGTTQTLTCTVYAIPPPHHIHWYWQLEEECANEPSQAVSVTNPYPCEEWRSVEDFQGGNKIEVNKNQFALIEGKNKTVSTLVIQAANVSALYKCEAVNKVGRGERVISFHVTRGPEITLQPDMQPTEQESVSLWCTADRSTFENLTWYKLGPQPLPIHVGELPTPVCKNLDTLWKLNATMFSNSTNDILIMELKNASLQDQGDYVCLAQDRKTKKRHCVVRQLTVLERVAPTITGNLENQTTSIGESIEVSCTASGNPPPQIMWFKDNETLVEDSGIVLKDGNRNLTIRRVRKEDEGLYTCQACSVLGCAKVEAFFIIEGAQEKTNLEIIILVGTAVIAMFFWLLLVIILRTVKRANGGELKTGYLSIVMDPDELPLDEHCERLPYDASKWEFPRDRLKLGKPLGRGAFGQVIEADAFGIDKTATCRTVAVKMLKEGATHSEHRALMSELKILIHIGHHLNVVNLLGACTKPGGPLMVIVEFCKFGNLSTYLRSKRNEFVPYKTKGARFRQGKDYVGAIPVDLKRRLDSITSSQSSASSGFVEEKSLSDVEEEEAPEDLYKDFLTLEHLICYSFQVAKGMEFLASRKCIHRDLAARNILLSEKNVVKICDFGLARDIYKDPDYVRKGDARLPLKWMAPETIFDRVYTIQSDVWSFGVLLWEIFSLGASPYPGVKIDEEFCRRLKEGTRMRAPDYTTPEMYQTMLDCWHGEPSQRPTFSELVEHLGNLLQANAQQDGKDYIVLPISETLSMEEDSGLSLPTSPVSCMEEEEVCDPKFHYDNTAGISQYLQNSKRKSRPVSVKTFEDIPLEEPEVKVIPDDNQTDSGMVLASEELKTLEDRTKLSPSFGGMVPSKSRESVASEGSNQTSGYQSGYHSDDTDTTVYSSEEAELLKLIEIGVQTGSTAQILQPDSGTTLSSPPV
Experiment: In vitro VEGFR-2 kinase inhibitory assay
Type: biochemical
Conditions: four concentrations 10 nM–10 μM
The molecules listed here are annotated with their IC50.
I'd appreciate it if you wrote the number followed by its unit.

Reference set, count: 2
molecule: COc1cc(C=C2SC(=O)N(CC(=O)Nc3nc4ccc([N+](=O)[O-])cc4s3)C2=O)cc(OC)c1OC [4e]
IC50: 161 nM
//
molecule: Cc1ccc(-c2nc(SCC(=O)Nc3nc4ccc([N+](=O)[O-])cc4s3)[nH]c(=O)c2C#N)cc1 [8a]
IC50: 266 nM

Could you now consider this next molecule?
For O=C(CN1C(=O)SC(=Cc2ccc(F)cc2)C1=O)Nc1nc2ccc([N+](=O)[O-])cc2s1 [4a] the molecule record lists IC50 as 91 nM
